Would you kindly list MIC for each of these compounds?
# Tested on: Acinetobacter baumannii
# assay.info: Antibacterial activity against Acinetobacter baumanii ATCC 19606 assessed as inhibition of bacterial growth measured after 16 to 20 hrs
# Format: functional
# setup.conditions: ATCC 19606 = CIP 70.34 = JCM 6841, time 16-20 hrs

CCCCCCCCCCCCS(=O)(=O)N1CCC[C@H]1C(=O)N[C@H](C(=O)N[C@@H](C)C(=O)NC(CC(N)=O)C(=O)N[C@@H](C)B1O[C@@H]2C[C@H]3C[C@H](C3(C)C)[C@]2(C)O1)[C@@H](C)O (mixture of isomers) | > 64 mg/L

Prompt: Answer with MIC of CCCCCCc1ccc(-c2ccc([S@@](=N)(=O)N3CCC[C@H]3C(=O)N[C@H](C(=O)N[C@@H](C)C(=O)NC(CC(N)=O)C(=O)N[C@@H](C)B3O[C@@H]4C[C@H]5C[C@H](C5(C)C)[C@]4(C)O3)[C@@H](C)O)cc2)cc1 (mixture of isomers) measured for Acinetobacter baumannii.
Completion: > 64 mg/L
